This listing pairs molecules with measured selectivity ratio.
- method: Selectivity index, ratio of IC50 for rat L6 cells to IC50 for Leishmania donovani MHOM/ET/67/L82
- Format: toxicity, cell-based
- experimental-context: read-out: Ratio IC50
assay-metric: selectivity ratio

[[record]]
smiles_record = "O=C(Nc1c(O)cccc1-c1nc2c(C(=O)O)cccc2o1)c1cccc(Cl)c1"
modifier = "="
measured = 74

[[record]]
smiles_record = "O=C(Nc1c(O)cccc1-c1nc2c(C(=O)O)cccc2o1)c1cc2ccccc2[nH]1"
modifier = "="
measured = 312

[[record]]
smiles_record = "O=C(Nc1ccccc1-c1nc2c(C(=O)O)cccc2o1)c1ccccc1"
modifier = "="
measured = 118

[[record]]
smiles_record = "O=C(Nc1c(O)cccc1-c1nc2c(C(=O)O)cccc2o1)c1ncccc1F"
modifier = "="
measured = 392

[[record]]
smiles_record = "O=C(Nc1c(O)cccc1-c1nc2c(C(=O)O)cccc2o1)c1ccccc1O"
modifier = "="
measured = 100

[[record]]
smiles_record = "O=C(Nc1c(O)cccc1-c1nc2c(C(=O)O)cccc2o1)c1ccccc1"
modifier = ">"
measured = 138

[[record]]
smiles_record = "O=C(Nc1c(O)cccc1-c1nc2c(C(=O)O)cccc2o1)c1cccnc1"
modifier = "="
measured = 55

[[record]]
smiles_record = "O=C(Nc1c(O)cccc1-c1nc2c(C(=O)O)cccc2o1)c1ccc(F)c(F)c1F"
modifier = "="
measured = 111

[[record]]
smiles_record = "O=C(Nc1c(O)cccc1-c1nc2c(C(=O)O)cccc2o1)c1ccccn1"
modifier = "="
measured = 99

[[record]]
smiles_record = "O=C(Nc1c(O)cccc1-c1nc2c(C(=O)O)cccc2o1)c1cc(-c2ccccc2)nc2ccccc12"
modifier = "="
measured = 92


====

- System: L6
- method: Cytotoxicity against rat L6 cells
- Assay type: cell-based
- experimental-context: Rattus norvegicus, L6
This listing pairs molecules with measured IC50.
assay-metric: IC50 (µM)

[[record]]
smiles_record = "O=C(Nc1c(O)cccc1-c1nc2c(C(=O)O)cccc2o1)c1ccccc1"
measured_on = "L6"
modifier = ">"
measured = 240

[[record]]
smiles_record = "O=C(Nc1c(O)cccc1-c1nc2c(C(=O)O)cccc2o1)c1ccccc1O"
measured_on = "L6"
modifier = "="
measured = 85.1

[[record]]
smiles_record = "O=C(Nc1c(O)cccc1-c1nc2c(C(=O)O)cccc2o1)c1cc2ccccc2[nH]1"
measured_on = "L6"
modifier = "="
measured = 212

[[record]]
smiles_record = "O=C(Nc1c(O)cccc1-c1nc2c(C(=O)O)cccc2o1)c1cnccn1"
measured_on = "L6"
modifier = "="
measured = 94.4

[[record]]
smiles_record = "O=C(Nc1c(O)cccc1-c1nc2c(C(=O)O)cccc2o1)c1cc(-c2ccccc2)on1"
measured_on = "L6"
modifier = "="
measured = 141


====

This listing pairs compounds with measured selectivity ratio.
- method: Selectivity index, ratio of IC50 for rat L6 cells to IC50 for Leishmania donovani MHOM/ET/67/L82
- Type: toxicity, cell-based
- experimental-context: read-out: Ratio IC50
assay-metric: selectivity ratio

[[record]]
compound = "O=C(Nc1c(O)cccc1-c1nc2c(C(=O)O)cccc2o1)c1cnccn1"
measured = 185

[[record]]
compound = "CCCCCCCCCCCCCCCCOP(=O)([O-])OCC[N+](C)(C)C [MILTEFOSINE]"
measured = 565

[[record]]
compound = "O=C(Nc1c(O)cccc1-c1nc2c(C(=O)O)cccc2o1)c1cc(-c2ccccc2)on1"
measured = 152

[[record]]
compound = "O=C(Nc1c(O)cccc1-c1nc2c(C(=O)O)cccc2o1)c1ncccc1O"
measured = 185

[[record]]
compound = "COc1cccc(-c2nc3c(C(=O)O)cccc3o2)c1NC(=O)c1cc2ccccc2[nH]1"
measured = 69

